Target or test system: c-Ret (RET receptor tyrosine kinase) on NB41A3-mRL3 cells (UniProt P35546 29-1115, limits assumed)
Sequence (P35546 29-1115 limits assumed): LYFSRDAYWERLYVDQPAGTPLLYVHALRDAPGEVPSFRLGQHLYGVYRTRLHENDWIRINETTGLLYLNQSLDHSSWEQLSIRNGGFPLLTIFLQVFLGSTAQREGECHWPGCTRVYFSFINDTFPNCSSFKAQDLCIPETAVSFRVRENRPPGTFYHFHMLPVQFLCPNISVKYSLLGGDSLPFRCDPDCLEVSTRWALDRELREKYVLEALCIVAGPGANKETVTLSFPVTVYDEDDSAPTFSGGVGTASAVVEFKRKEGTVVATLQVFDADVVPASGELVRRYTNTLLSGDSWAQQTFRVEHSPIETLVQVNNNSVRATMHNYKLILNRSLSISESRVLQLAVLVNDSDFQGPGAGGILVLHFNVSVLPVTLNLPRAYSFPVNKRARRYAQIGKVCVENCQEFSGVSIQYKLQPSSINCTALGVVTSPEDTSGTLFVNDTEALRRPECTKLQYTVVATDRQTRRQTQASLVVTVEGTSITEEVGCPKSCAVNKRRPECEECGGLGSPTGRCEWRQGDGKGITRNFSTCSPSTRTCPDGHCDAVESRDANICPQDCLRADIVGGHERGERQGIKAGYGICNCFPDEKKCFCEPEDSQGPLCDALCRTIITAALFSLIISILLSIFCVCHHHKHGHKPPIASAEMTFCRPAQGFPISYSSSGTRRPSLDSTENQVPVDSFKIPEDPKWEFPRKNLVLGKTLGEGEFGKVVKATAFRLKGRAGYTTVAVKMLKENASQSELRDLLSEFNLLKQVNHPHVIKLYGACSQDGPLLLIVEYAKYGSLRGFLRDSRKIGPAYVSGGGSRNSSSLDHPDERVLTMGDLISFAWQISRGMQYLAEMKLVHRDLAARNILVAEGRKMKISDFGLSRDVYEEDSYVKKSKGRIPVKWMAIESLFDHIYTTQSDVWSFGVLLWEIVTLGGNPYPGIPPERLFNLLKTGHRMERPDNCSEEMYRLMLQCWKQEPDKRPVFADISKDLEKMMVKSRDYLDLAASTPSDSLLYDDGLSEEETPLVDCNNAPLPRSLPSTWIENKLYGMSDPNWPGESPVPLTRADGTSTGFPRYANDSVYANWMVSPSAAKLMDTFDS
Assay comment: cell-based or functional assay
Readout label: KIRA:~ Max Efficacy vs WT

// query What value of measured KIRA:~ Max Efficacy vs WT is listed for 4 × 10 kDa PEG NBN106-N95K (ligand, 10 kDa PEG on the amino terminus and on Lys95 of each chain (Table 8: 1, 1, 95, 95)) ARATDARGCRLRSQLVPVSALGLGHSSDELIRFRFCSGSCRRARSPHDLSLASLLGAGALRSPPGSRPISQPCCRPTRYEAVSFMDVKSTWRTVDHLSATACGCLG ?
// result > 80%

// query Then this binder: 3 × 10 kDa PEG NBN106-N95K (ligand, three 10 kDa PEG per dimer: both amino termini and one Lys95 (Table 8: 1, 1, 95)) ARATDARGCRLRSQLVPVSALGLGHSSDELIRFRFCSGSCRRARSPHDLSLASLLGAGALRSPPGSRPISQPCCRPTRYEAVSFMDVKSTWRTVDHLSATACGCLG
// result ~100%

***
// query # query: KIRA:~ Max Efficacy vs WT of entry 2 × 5 kDa PEG-NBN (ligand, 5 kDa PEG on the amino-terminal amino acid of each chain (Table 8: PEGylated amino acids 1, 1)) AGTRSSRARATDARGCRLRSQLVPVSALGLGHSSDELIRFRFCSGSCRRARSPHDLSLASLLGAGALRSPPGSRPISQPCCRPTRYEAVSFMDVNSTWRTVDHLSATACGCLG
// result ~105%

// query Another: 2 × 20 kDa PEG-NBN (ligand, 20 kDa PEG on the amino-terminal amino acid of each chain (Table 8: 1, 1)) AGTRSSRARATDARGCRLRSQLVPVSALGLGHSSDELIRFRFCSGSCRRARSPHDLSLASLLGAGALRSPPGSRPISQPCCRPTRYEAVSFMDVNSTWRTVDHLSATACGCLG
// result ~80%
